Test system: HCC827-YVMA cells (human ERBB2 exon20 insertion mutant A775_G776ins YVMA)
Test: Cell growth inhibition (CellTiter-Glo, 3 days) in HCC827-YVMA
Assay type: cell-based
Details: 72 h, 3 days after administration
Readout Label: GI50

> print(dat)
                         chemical.structure  experimental.value
1  C=CC(=O)N1CCC(Nc2cc3c(Nc4ccc(Oc5ccnc(N6C[C@H]7CCCC[C@H]7C6)c5)cc4F)ncnc3cc2OC)CC1        60 to 100 nM
2  C=CC(=O)N1CCC(Nc2cc3c(Nc4ccc(Oc5ccnc(N6CC[C@H](O)C6)c5)cc4F)ncnc3cc2OC)CC1       100 to 300 nM
3  C=CC(=O)N1CCC(Nc2cc3c(Nc4ccc(Oc5ccnc(N6CCN(C)[C@@H](C)C6)c5)cc4F)ncnc3cc2OC)CC1         30 to 60 nM

GI50 reported for this compound C=CC(=O)N1CCC(Nc2cc3c(Nc4ccc(Oc5ccn(-c6ccnc(OC)n6)n5)cc4F)ncnc3cc2OC)CC1 : < 30 nM
